# Tested on: SARS-CoV-2
# assay method text: Inhibitory activity of cytopathic effect (CPE) in HEK293T/ACE2-TMPRSS2 cells
# Type: cell-based
# experimental conditions: Severe acute respiratory syndrome coronavirus 2, HEK-293T, 72 h; 50% SARS-CoV-2 infected cell death inhibitory concentration; HEK293T/ACE2-TMPRSS2 cells; CellTiter-Glo 2.0 after 3 days culture; read-out: EC50
# pEC50 per entry
Scale for pEC50: -log10 of concentration given in mol/L; no unit attached.

# annotated cases, reported pEC50 shown
COc1nc(N2CC[C@@H](OC)C2)cc2c1c(=O)n(-c1cncc(Cl)c1)c(=O)n2-c1ccc(F)c(Cl)c1 ... 8.16
COc1nc2c(=O)n(-c3cnc4cc(F)ccn34)c(=O)n(Cc3cc(Cl)c(F)cc3C)c2cc1-c1cc(C(C)(C)O)ccc1Cl ... 7.14
COc1nc(N2CC(O)(C(F)(F)F)C2)cc2c1c(=O)n(-c1cnc3cc(F)ccn13)c(=O)n2-c1ccc(F)c(Cl)c1 ... 7.45
COc1cc(-c2cc3c(C#N)c[nH]c3cc2Cl)cc2c1c(=O)n(Cc1ncn(C)n1)c(=O)n2Cc1cc(F)c(F)c(F)c1 ... 6.98
COc1nc(N(C)C)cc2c1c(=O)n(-c1cnc3cc(F)ccn13)c(=O)n2-c1ccc(F)c(Cl)c1 ... 8.15
O=c1c2c(=O)n(-c3cnc4cc(F)ccn34)c(=O)n(-c3ccc(F)c(Cl)c3)c2cc2n1CC[C@@H]1CCCN21 ... 6.27
CCCn1c(-c2cc(C#N)ccc2Cl)cc2c(c1=O)c(=O)n(-c1cncc(Cl)c1)c(=O)n2Cc1cc(F)c(F)c(F)c1 ... 7.65
O=c1c2c(=O)n(-c3cnc4cc(F)ccn34)c(=O)n(-c3ccc(F)c(Cl)c3)c2cc2n1CC[C@@H]1CCCCN21 ... 6.36

IN: Tell me the measured pEC50 of Cc1cnc2c3c(=O)n(Cc4ncn(C)n4)c(=O)n(Cc4cc(F)c(F)c(F)c4)c3cc(-c3cc(C#N)ccc3Cl)n12 , please.
OUT: 6.28

IN: Please answer likewise for CCn1c(-c2cc(C#N)ccc2Cl)cc2c(c1=O)c(=O)n(-c1cnc3cc(F)ccn13)c(=O)n2Cc1cc(F)c(F)c(F)c1
OUT: 6.94

IN: Please answer likewise for COc1nc(N2CC[C@@H](C#N)C2)cc2c1c(=O)n(-c1cnc3cc(F)ccn13)c(=O)n2Cc1cc(F)c(F)c(Cl)c1
OUT: 7.70

IN: Please answer likewise for Cn1cnc(Cn2c(=O)c3c4c(c(N5CCCC5=O)cc3n(Cc3cc(F)c(F)c(Cl)c3)c2=O)CCO4)n1
OUT: 7.96

IN: Please answer likewise for COc1cc(-c2c(Cl)ccc3c2CCN(C)C3=O)cc2c1c(=O)n(Cc1ncn(C)n1)c(=O)n2Cc1cc(F)c(F)c(F)c1
OUT: 7.32

----------
# measured on: UniProt:P0DTD1
# assay method text: Inhibitory activity test against SARS-CoV-2 3CL proteases
# Type: biochemical
# experimental conditions: read-out: IC50 (50% SARS-CoV-2 3CL protease inhibitory concentration)
I'd appreciate it if you marked entries MET when IC50 is lower than 0.007 µM and NOT MET when it is not.

Consider the worked cases shown below.
COc1nc(N2CC[C@@H](OC)C2)cc2c1c(=O)n(Cc1ncn(C)n1)c(=O)n2Cc1cc(F)c(F)c(F)c1 ... NOT MET
COc1cc(-c2c(Cl)ccc3c(=O)n(C)ccc23)cc2c1c(=O)n(Cc1ncn(C)n1)c(=O)n2Cc1cc(F)c(F)c(F)c1 ... NOT MET
Cn1cnc(Cn2c(=O)c3c(F)cc(-c4cc5c(cc4Cl)NC(=O)C5)c(F)c3n(Cc3cc(F)c(F)c(F)c3)c2=O)n1 ... MET

IN: Is the reported IC50 for CCn1c(-c2cc(C#N)ccc2Cl)cc2c(c1=O)c(=O)n(-c1cncc(Cl)c1)c(=O)n2Cc1cc(F)c(F)c(F)c1 strictly below 0.007 µM?
OUT: MET

IN: Please answer likewise for Cn1cnc(Cn2c(=O)c3c4c(c(N5CCCC5=O)cc3n(Cc3cc(F)c(F)c(Cl)c3)c2=O)CCO4)n1
OUT: MET
